Hello, the source for this data is patent US12636249B2, in case you need it.

- METHOD: Pharmacokinetics of TXA in swine plasma after IV and IM administration
- Type: in vivo, domestic pigs
- CONDITION NOTES: pig, plasma, iv, 1 g, swine Group 2: 1 g TXA IV, n=5; read-out: mean AUCINF_pred (converted)

| COMPOUND SMILES | AUC(0-inf) |
| --- | --- |
| NC[C@H]1CC[C@H](C(=O)O)CC1 | 74000 ng·h/mL |

---

- METHOD: Pharmacokinetics of TXA in swine plasma after IV and IM administration
- Assay type: in vivo, domestic pigs
- CONDITION NOTES: pig, plasma, iv, 1 g, swine Group 2: 1 g TXA IV, n=5; read-out: Tmax range

| COMPOUND SMILES | Tmax |
| --- | --- |
| NC[C@H]1CC[C@H](C(=O)O)CC1 | 11 to 12 min |
